Value source: the supplement of paper PMC10567573

B1: CAMK2D (parent)
chain: LLKHPNIVRLHDSISEEGFHYLVF

# Variants of: B1
# Assay Summary: protein stability index of a GFP-peptide fusion (GPS, HEK-293T) (PSI 1-6); higher = more stable;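 also: lentivirally expressed fusions sorted by FACS into six bins by GFP to DsRed ratio, PSI derived from sequencing read proportions per bin multiplied by bin number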
# Experimental Parameters: c terminus: a fixed tail appended
Test Readout: protein stability index

INSERT INTO measurements (sequence_change, experimental_result) VALUES
  ('N6L', 3.32),
  ('L1S', 2.13),
  ('Y21S', 2.33),
  ('F19M', 2.08),
  ('S15W', 3.22),
  ('G18N', 1.5),
  ('N6I', 1.94),
  ('L10S', 1.86),
  ('L22A', 3.02),
  ('L2Y', 1.83),
  ('G18Q', 1.94),
  ('F24Q', 1.85),
  ('S13F', 1.5),
  ('F24P', 1.98),
  ('G18M', 2.1),
  ('L2M', 1.77),
  ('E16D', 1.67),
  ('K3V', 1.78),
  ('P5Q', 2.6),
  ('E16P', 1.62),
  ('N6S', 1.39),
  ('F19V', 1.52),
  ('I14G', 1.64),
  ('L22K', 2.54),
  ('L1I', 3.14),
  ('G18C', 1.98),
  ('I14S', 2.15),
  ('E17H', 1.87),
  ('S13A', 3.1),
  ('R9D', 3.18),
  ('E17N', 3.79),
  ('V8D', 2.41),
  ('H4C', 1.66),
  ('I14M', 1.18),
  ('E16R', 1.67),
  ('I7M', 3.55),
  ('R9V', 1.84),
  ('F24W', 1.22),
  ('G18K', 3.36),
  ('S15C', 2.51),
  ('D12H', 3.02),
  ('E17D', 2.66),
  ('I14V', 2.11),
  ('R9P', 2.45),
  ('R9Y', 2.87),
  ('Y21C', 2),
  ('F19A', 1.81),
  ('L22W', 1.88),
  ('P5A', 2.2),
  ('S15R', 2.66),
  ('G18A', 3.26),
  ('H4Q', 1.06),
  ('L2P', 1.56),
  ('V8K', 2.05),
  ('E17L', 3.59),
  ('L22Y', 2.02),
  ('E16W', 1.92),
  ('S13W', 1.84),
  ('F24V', 2.12),
  ('L1H', 1.51),
  ('I7D', 1.99),
  ('Y21L', 1.97),
  ('L10K', 2.02),
  ('G18P', 2.03),
  ('H20P', 2.08);
